# log10 of solubility kinetic per entry
Conditions: buffer; pH 7.4; 200.0 µM
property label: log10 of solubility kinetic (log10 of the value in µg/mL)

1) Cc1nccn1C[C@@H]1CCc2c(c3ccccc3n2C)C1=O : 1.51
2) Cc1ncc(CN2CCC(CO)(CCOc3ccccc3)CC2)s1 : 1.68
3) CCc1c(C)nc(N2CCN(c3ccc(Cl)cc3)CC2)[nH]c1=O : 0.04
4) O=C(CCCNC(=O)c1ccc(Cl)cc1)Nc1nccs1 : 1.01
5) COc1ccc(NC(=O)/C=C/c2cc(OC)c(OC)c(OC)c2)cn1 : -0.30
6) Cc1ccc(S(=O)(=O)N2CCN(C(=O)c3ccco3)CC2)c(C)c1 : 1.69
7) COc1cccc(C(=O)Nc2ccc(C(=O)NCC3CCCO3)cc2)c1 (centres undefined) : 1.66
8) CCC(C)(C)NC(=O)CN(C(=O)c1ccc(N2CCCC2)nc1)c1ccc(F)cc1 : 1.78
9) CCOC(=O)c1cnc2c(ccc3ccccc32)c1NCCCN(C)C : 1.66
10) COC(=O)c1sccc1Oc1ccc(Cl)cc1N1C(=O)CCC1=O : 1.69
11) O=S(=O)(NCCOc1ccccc1F)c1ccc(Cl)cc1F : 0.76
12) COc1ccccc1CC(=O)NCc1csc(-c2cccs2)n1 : 1.66
13) O=C1CC(Cc2ccc(Cl)cc2)C(=O)N1c1cc(Cl)ccn1 (centres undefined) : 1.47
